# subject-of-test: cloned human NR1/NR2B ion channels (Homo sapiens (Human), UniProt Q05586+Q13224)
# Sequence (Q13224 27-1484, other chains not shown): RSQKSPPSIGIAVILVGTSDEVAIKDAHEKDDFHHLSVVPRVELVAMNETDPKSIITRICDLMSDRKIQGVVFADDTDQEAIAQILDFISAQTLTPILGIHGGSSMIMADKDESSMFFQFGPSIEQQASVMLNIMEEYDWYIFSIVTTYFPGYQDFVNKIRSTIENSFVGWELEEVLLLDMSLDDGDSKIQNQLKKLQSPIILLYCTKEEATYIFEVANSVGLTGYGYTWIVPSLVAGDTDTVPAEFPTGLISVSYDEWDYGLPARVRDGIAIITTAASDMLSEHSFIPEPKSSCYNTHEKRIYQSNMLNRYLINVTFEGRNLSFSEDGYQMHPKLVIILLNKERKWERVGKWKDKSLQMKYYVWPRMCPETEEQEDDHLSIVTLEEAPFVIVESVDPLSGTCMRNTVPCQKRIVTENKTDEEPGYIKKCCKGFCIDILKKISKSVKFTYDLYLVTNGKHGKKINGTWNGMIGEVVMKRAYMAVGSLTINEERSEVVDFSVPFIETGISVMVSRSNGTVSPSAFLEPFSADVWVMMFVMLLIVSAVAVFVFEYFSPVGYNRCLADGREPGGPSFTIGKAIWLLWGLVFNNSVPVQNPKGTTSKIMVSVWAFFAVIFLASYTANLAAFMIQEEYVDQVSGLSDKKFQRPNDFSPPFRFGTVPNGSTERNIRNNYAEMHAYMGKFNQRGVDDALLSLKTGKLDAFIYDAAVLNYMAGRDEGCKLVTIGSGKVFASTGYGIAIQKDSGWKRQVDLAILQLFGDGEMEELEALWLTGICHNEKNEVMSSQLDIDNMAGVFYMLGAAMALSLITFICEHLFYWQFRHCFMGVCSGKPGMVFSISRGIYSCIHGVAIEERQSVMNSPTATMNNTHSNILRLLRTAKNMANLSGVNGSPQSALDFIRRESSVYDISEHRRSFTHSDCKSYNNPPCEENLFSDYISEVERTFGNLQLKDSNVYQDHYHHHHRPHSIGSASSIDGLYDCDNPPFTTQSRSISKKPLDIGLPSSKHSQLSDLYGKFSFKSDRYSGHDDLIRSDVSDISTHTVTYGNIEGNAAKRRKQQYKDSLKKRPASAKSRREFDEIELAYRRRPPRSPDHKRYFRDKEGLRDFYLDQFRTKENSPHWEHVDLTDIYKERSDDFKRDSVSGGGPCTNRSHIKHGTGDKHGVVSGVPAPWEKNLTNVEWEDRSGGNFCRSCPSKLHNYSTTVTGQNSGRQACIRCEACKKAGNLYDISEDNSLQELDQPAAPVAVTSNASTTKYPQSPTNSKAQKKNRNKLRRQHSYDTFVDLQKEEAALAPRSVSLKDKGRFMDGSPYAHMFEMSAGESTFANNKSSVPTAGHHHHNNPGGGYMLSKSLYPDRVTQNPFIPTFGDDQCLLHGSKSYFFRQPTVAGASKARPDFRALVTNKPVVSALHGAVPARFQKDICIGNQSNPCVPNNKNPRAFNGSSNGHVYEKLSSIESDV
# test-protocol: HNR2BC: effects of test articles on cloned human NR1/NR2B ion channels expressed in mammalian cells (FLIPR calcium flux)
# Type: cell-based
# condition-label: cloned human NR1/NR2B, Table 5
# Procedure: HNR2BC: Effects of Test Articles on Cloned Human NR1/NR2B Ion Channels Expressed in Mammalian Cells NMDA receptors are ion channels that are highly permeable to Ca^2+ ions, rendering it possible to monitor NMDA receptor function using cell-based calcium flux assay. […] The time course of the changes in intracellular calcium is measured using a fluorescent dye and a FLIPR (Fluorometric Imaging Plate Reader) device. […]
Counter-ions that a name gives are not always drawn.
Could you please mark True for values of IC50 below 100 nM and False for values at or above it?

Find out if reported IC50 for CCc1cccc(-c2cnc3c(Cl)cn(CC(=O)N(C)C)c3c2)c1 is less than 100 nM
True

Find out if reported IC50 for Cc1cc2ncc(-c3ccc(F)cc3)cc2n1CC(=O)N1CCCC1 is less than 100 nM
False

Find out if reported IC50 for O=C(Cn1cc(F)c2ncc(-c3ccc(F)cc3)cc21)N1CCC1 is less than 100 nM
True

Find out if reported IC50 for Cc1cc2ncc(-c3ccc(F)cc3)cc2n1CC(=O)N1CCC1 is less than 100 nM
False

Find out if reported IC50 for CCc1cccc(-c2cnc3ccn(CC(=O)N4CCCC4)c3c2)c1 is less than 100 nM
False

Find out if reported IC50 for Cc1cccc(-c2cnc3ccn(CC(=O)N4CC(F)C4)c3c2)c1 [Example 266, trifluoroacetate salt] is less than 100 nM
False

Find out if reported IC50 for O=C(Cn1ccc2ncc(-c3ccc(F)c(C(F)(F)F)c3)cc21)N1CCOCC1 is less than 100 nM
False

Find out if reported IC50 for Cc1ccc(-c2cnc3ccn(CC(=O)N4CCCC4)c3c2)cc1 is less than 100 nM
True

----------
Items are presented alongside their recorded pIC50.
# subject-of-test: cloned human NR1/NR2B ion channels (Homo sapiens (Human), UniProt Q05586+Q13224)
# test-protocol: HNR2BC: effects of test articles on cloned human NR1/NR2B ion channels expressed in mammalian cells (FLIPR calcium flux)
# Assay type: cell-based
# condition-label: cloned human NR1/NR2B ion channels, Table 5
Where a name gives a salt, the structure may show the parent alone.
Remember the convention: pIC50 equals -log10 of concentration in molar.

These solved cases illustrate the format of a correct answer.
> print(dat)
                                   molecule  measured.metric  quantitative.result
1  CCc1ccc(-c2cnc3c(Cl)cn(CC(=O)N4CCC4)c3c2)s1 [Example 408]            pIC50                 7.40
2  O=C(Cn1cc(Cl)c2ncc(-c3ccc(Cl)s3)cc21)N1CC(F)C1 [Example 413]            pIC50                 7.30
3  CCN(C)C(=O)Cn1cc(C)c2ncc(-c3cccc(C)c3F)cc21 [Example 560]            pIC50                 6.10
4  CCc1cccc(-c2cnc3ccn(CC(=O)N(C)C)c3c2)c1 [Example 449]            pIC50                 7.20

Which measured pIC50 value corresponds to Cc1ccc(-c2cnc3c(Cl)cn(CC(=O)N4CC(F)C4)c3c2)s1 [Example 412] ?
5.10

Which measured pIC50 value corresponds to Cc1cccc(-c2cnc3c(C)cn(CC(=O)N(C)C)c3c2)c1F [Example 562] ?
7.30

Which measured pIC50 value corresponds to CN(C)C(=O)Cn1ccc2ncc(-c3cccc(C(F)F)c3)cc21 [Example 377] ?
8.00

Which measured pIC50 value corresponds to Cc1cn(CC(=O)N(C)C)c2cc(-c3ccc(F)cc3)cnc12 [Example 558] ?
7.10

Which measured pIC50 value corresponds to Cc1c(F)ccc(-c2cnc3c(F)cn(CC(=O)N4CC(F)C4)c3c2)c1F [Example 488] ?
7.80

Which measured pIC50 value corresponds to Cc1ccc(-c2cnc3c(C)cn(CC(=O)N4CCCC4)c3c2)s1 [Example 631] ?
6.80

Which measured pIC50 value corresponds to O=C(Cn1ccc2ncc(-c3cc(Cl)cs3)cc21)N1CCC1 [Example 394, trifluoroacetate salt] ?
6.80

Which measured pIC50 value corresponds to CN(C)C(=O)Cn1cc(Cl)c2ncc(-c3cccc(F)c3)cc21 [Example 531] ?
7.30

Which measured pIC50 value corresponds to Cc1c(F)ccc(-c2cnc3ccn(CC(=O)N4CC(F)C4)c3c2)c1F [Example 460] ?
7.20

----------
# subject-of-test: cloned human NR1/NR2B ion channels (Homo sapiens (Human), UniProt Q05586+Q13224)
# test-protocol: HNR2BC: effects of test articles on cloned human NR1/NR2B ion channels expressed in mammalian cells (FLIPR calcium flux)
# Type: cell-based
# condition-label: cloned human NR1/NR2B, Table 5
Structures can show the parent of a compound that is named as a salt.
measured-metric: IC50 (µM)
Entry rule: numbers only, all in µM.

> print(dat)
                                   compound  measured.metric  quantitative.result
1  CC(NC(=O)Cn1ccc2ncc(-c3ccc(F)cc3)cc21)C(F)(F)F (racemic)             IC50                    2
2  O=C(Cn1ccc2ncc(-c3cncc(C(F)(F)F)c3)cc21)N1CCC1             IC50                0.398
3   Cc1cc2ncc(-c3ccccc3)cc2n1CC(=O)N1CCOCC1             IC50                 1.26
4  O=C(Cn1ccc2ncc(-c3ccnc(C(F)(F)F)c3)cc21)NC1CC1             IC50                0.251
5  CC(C)C(=O)Cn1cc(F)c2ncc(-c3cccc(C(F)(F)F)c3)cc21             IC50               0.0631

Which measured IC50 value corresponds to Cc1cccc(-c2cnc3ccn(CC(=O)N4CCCC4)c3c2)c1 ?
0.316

Which measured IC50 value corresponds to O=C(Cn1cc(Cl)c2ncc(-c3ccc(F)cc3)cc21)NC1CC1 ?
0.126

Which measured IC50 value corresponds to Cc1ccc(-c2cnc3ccn(CC(=O)N4CC(F)(F)C4)c3c2)s1 ?
0.251

Which measured IC50 value corresponds to O=C(Cn1ccc2ncc(-c3ccc(F)cc3)cc21)N1CC[C@H](F)C1 [Example 294, trifluoroacetate salt] ?
0.316

Which measured IC50 value corresponds to COC1CCN(C(=O)Cn2ccc3ncc(-c4ccc(F)c(C)c4)cc32)C1 (racemic) [Example 198, trifluoroacetate salt] ?
1

Which measured IC50 value corresponds to Cc1cccc(-c2cnc3ccn(CC(=O)N4CC(F)(F)C4)c3c2)c1 ?
0.0631

----------
# subject-of-test: cloned human NR1/NR2B ion channels (Homo sapiens (Human), UniProt Q05586+Q13224)
# test-protocol: HNR2BC: effects of test articles on cloned human NR1/NR2B ion channels expressed in mammalian cells (FLIPR calcium flux)
# Format: cell-based
# condition-label: cloned human NR1/NR2B ion channels, Table 5
Where a name gives a salt, the structure may show the parent alone.
measured-metric: IC50 (nM)
Entry rule: numbers only, all in nM.

> print(dat)
                                   molecule  quantitative.result
1  Cc1cn(CC(=O)N2CC(F)C2)c2cc(-c3ccc(F)c(F)c3)cnc12                 63.1

Which measured IC50 value corresponds to O=C(Cn1cc(F)c2ncc(-c3cccs3)cc21)N1CC(F)C1 [Example 395, trifluoroacetate salt] ?
50.1

Which measured IC50 value corresponds to CCc1cccc(-c2cnc3c(F)cn(CC(=O)N4CC(F)C4)c3c2)c1 ?
15.8

Which measured IC50 value corresponds to Cc1cc(-c2cnc3c(Cl)cn(Cc4cccnn4)c3c2)ccc1F ?
31.6

Which measured IC50 value corresponds to CN(C)C(=O)Cn1ccc2ncc(-c3cccc(Cl)c3F)cc21 ?
20

Which measured IC50 value corresponds to Cc1c(F)ccc(-c2cnc3ccn(CC(=O)N(C)C)c3c2)c1F ?
20

----------
Items are presented alongside their recorded IC50.
# subject-of-test: cloned human NR1/NR2B ion channels (Homo sapiens (Human), UniProt Q05586+Q13224)
# test-protocol: HNR2BC: effects of test articles on cloned human NR1/NR2B ion channels expressed in mammalian cells (FLIPR calcium flux)
# Type: cell-based
# condition-label: cloned human NR1/NR2B, Table 5
Structures can show the parent of a compound that is named as a salt.
Entry rule: numbers only, all in nM.

These solved cases illustrate the format of a correct answer.
> print(dat)
                                   compound                           subject.of.test  output.unit  quantitative.result
1     CCCNC(=O)Cn1ccc2ncc(-c3ccc(F)cc3)cc21  cloned human NR1/NR2B ion channels (Homo sapiens (Human), UniProt Q05586+Q13224)           nM                 5010
2  Cc1cc(-c2cnc3c(F)cn(CC(=O)N4CC(F)(F)C4)c3c2)ccc1F  cloned human NR1/NR2B ion channels (Homo sapiens (Human), UniProt Q05586+Q13224)           nM                  100

What IC50 appears in the records for this compound with cloned human NR1/NR2B ion channels (Homo sapiens (Human), UniProt Q05586+Q13224)? Cc1cc(-c2cnc3ccn(CC(=O)N4CCC(F)CC4)c3c2)ccc1F [Example 191, trifluoroacetate salt]
316

What IC50 appears in the records for this compound with cloned human NR1/NR2B ion channels (Homo sapiens (Human), UniProt Q05586+Q13224)? Cc1cc2ncc(-c3ccccc3)cc2n1CC(=O)N1CCC1
79.4

What IC50 appears in the records for this compound with cloned human NR1/NR2B ion channels (Homo sapiens (Human), UniProt Q05586+Q13224)? COCCNC(=O)Cn1ccc2ncc(-c3ccc(F)cc3)cc21
1260
